Known Dmax of a selection of molecules
# test.system: HiBit-BRG1 fusion protein (Homo sapiens)
# Construct: expressed in transfected cells
# Sequence (P51532 whole entry, the tested form may be a part): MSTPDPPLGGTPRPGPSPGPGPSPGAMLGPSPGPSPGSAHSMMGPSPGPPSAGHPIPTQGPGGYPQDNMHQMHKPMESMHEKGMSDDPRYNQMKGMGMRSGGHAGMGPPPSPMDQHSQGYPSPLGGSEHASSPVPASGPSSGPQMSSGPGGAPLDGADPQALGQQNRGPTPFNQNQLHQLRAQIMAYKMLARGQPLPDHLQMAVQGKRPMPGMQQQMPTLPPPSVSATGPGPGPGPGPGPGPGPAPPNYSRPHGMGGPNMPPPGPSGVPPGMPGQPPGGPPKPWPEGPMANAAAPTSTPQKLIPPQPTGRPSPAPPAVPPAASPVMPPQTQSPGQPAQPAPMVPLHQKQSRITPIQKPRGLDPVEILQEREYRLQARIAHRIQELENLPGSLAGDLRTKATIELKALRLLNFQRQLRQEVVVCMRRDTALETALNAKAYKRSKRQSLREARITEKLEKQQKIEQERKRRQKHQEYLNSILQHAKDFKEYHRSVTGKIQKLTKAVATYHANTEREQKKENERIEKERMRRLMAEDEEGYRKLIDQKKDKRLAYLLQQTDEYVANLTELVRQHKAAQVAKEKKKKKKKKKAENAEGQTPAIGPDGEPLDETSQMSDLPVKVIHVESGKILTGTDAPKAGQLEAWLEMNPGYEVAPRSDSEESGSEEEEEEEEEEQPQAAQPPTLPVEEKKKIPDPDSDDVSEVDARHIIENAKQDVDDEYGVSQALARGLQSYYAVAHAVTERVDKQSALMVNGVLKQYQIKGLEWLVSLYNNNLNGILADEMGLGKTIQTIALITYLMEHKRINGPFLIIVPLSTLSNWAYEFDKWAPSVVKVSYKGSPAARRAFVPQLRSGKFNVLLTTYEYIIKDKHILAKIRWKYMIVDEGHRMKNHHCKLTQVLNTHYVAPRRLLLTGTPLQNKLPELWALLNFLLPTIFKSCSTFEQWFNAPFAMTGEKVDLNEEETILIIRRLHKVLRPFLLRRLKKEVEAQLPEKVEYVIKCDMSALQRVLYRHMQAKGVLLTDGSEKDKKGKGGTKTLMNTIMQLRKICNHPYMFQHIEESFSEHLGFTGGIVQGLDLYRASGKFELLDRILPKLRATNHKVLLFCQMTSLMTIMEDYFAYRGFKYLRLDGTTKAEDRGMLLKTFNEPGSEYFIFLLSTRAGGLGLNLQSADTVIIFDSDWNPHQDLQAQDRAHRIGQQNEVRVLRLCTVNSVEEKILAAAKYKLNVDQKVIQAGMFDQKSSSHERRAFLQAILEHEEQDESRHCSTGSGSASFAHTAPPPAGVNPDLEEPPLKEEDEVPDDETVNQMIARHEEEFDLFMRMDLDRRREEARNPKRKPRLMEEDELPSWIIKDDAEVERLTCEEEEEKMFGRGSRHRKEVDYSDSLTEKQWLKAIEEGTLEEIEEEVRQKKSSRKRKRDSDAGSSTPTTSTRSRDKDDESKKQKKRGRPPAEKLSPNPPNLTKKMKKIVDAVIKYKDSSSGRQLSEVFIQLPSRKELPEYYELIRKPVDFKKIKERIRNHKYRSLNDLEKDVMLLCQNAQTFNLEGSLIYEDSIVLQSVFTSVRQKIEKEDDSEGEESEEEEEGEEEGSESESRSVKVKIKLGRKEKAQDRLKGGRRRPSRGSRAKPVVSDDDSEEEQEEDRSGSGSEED
# assay.overview: HiBiT-BRG1 cell-based degradation assay (Nano-Glo HiBiT Lytic Detection, 24 h)
# setup.conditions: stable HeLa cell line expressing HiBit-BRG1 and LgBit, read-out: BRG1 HiBit Degradation Maximum (%)

Please review the entries below; each comes with its answer.
Qu. What value of measured Dmax is listed for Cc1ncsc1-c1ccc([C@H](C)NC(=O)[C@@H]2C[C@@H](O)CN2C(=O)[C@@H](c2cc(Oc3cnc(N4CCC(c5sc6nnc(-c7ccccc7O)cc6c5C)CC4)nc3)no2)C(C)C)cc1 (single isomer, unassigned) ?
Ans. < 50%

Qu. Subsequent entry: Cc1ncsc1-c1ccc([C@H](C)NC(=O)[C@@H]2C[C@@H](O)CN2C(=O)[C@@H](c2cc([C@H]3CC[C@@H](c4cnc(N5CCC(c6sc7nnc(-c8ccccc8O)cc7c6C)CC5)nc4)CC3)no2)C(C)C)cc1 (single isomer, unassigned)
Ans. < 50%

Qu. Subsequent entry: `Cc1ncsc1-c1ccc([C@H](C)NC(=O)[C@@H]2C[C@@H](O)CN2C(=O)[C@@H](c2cc(-c3cnc(N4CC[C@@H](c5sc6nnc(-c7ccccc7O)cc6c5C)C4)nc3)no2)C(C)C)cc1`
Ans. > 75%

Qu. Subsequent entry: `Cc1ncsc1-c1ccc([C@H](C)NC(=O)[C@@H]2C[C@@H](O)CN2C(=O)[C@@H](c2cc(N3CC[C@H](c4sc5nnc(-c6ccccc6O)cc5c4C)C3)no2)C(C)C)cc1`
Ans. > 50%

Qu. Subsequent entry: `Cc1nc(N2CC[C@H](c3sc4nnc(-c5ccccc5O)cc4c3C)C2)ccc1-c1cc([C@H](C(=O)N2C[C@H](O)C[C@H]2C(=O)N[C@@H](C)c2ccc(-c3scnc3C)cc2)C(C)C)on1`
Ans. < 50%

***
Qu. What value of measured Dmax is listed for `Cc1ncsc1-c1ccc([C@H](C)NC(=O)[C@@H]2C[C@@H](O)CN2C(=O)[C@@H](c2cc(-c3cnc(N4CCC(c5sc6nnc(-c7cccc(Cl)c7O)cc6c5C)CC4)nc3)no2)C(C)C)cc1` ?
Ans. < 50%

Qu. Subsequent entry: `Cc1ncsc1-c1ccc([C@H](C)NC(=O)[C@@H]2C[C@@H](O)CN2C(=O)[C@@H](c2cc(N3CCN(c4sc5nnc(-c6ccccc6O)cc5c4C)CC3)no2)C(C)C)cc1`
Ans. < 50%

Qu. Subsequent entry: `Cc1ncsc1-c1ccc([C@H](C)NC(=O)[C@@H]2C[C@@H](O)CN2C(=O)[C@@H](c2cc(-c3cnc(N4CCC5(CC4)CC(c4sc6nnc(-c7ccccc7O)cc6c4C)C5)nc3)no2)C(C)C)cc1`
Ans. < 50%

Qu. Subsequent entry: `Cc1ncsc1-c1ccc([C@H](C)NC(=O)[C@@H]2C[C@@H](O)CN2C(=O)[C@@H](c2cc(-c3ccc(N4CCC(c5cc6cc(-c7ccccc7O)nnc6s5)CC4)nc3)no2)C(C)C)cc1`
Ans. < 50%

Qu. Subsequent entry: `Cc1ncsc1-c1ccc([C@H](C)NC(=O)[C@@H]2C[C@@H](O)CN2C(=O)[C@@H](c2cc(-c3c(C)nc(N4CCC(c5sc6nnc(-c7ccccc7O)cc6c5C)CC4)nc3C)no2)C(C)C)cc1`
Ans. > 50%
